measurement target: CDK1/Cyclin B1, GST-tag (Homo sapiens)
Construct: GST; purchased BPS 40454
Sequence (P06493 whole entry): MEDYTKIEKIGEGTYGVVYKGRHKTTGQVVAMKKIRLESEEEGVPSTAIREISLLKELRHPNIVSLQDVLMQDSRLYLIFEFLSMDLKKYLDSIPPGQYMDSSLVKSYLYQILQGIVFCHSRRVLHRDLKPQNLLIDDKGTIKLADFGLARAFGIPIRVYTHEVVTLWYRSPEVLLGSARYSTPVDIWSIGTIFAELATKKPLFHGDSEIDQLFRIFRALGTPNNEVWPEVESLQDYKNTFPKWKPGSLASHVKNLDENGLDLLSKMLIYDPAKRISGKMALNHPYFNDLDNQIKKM
Sequence (P14635 whole entry partner): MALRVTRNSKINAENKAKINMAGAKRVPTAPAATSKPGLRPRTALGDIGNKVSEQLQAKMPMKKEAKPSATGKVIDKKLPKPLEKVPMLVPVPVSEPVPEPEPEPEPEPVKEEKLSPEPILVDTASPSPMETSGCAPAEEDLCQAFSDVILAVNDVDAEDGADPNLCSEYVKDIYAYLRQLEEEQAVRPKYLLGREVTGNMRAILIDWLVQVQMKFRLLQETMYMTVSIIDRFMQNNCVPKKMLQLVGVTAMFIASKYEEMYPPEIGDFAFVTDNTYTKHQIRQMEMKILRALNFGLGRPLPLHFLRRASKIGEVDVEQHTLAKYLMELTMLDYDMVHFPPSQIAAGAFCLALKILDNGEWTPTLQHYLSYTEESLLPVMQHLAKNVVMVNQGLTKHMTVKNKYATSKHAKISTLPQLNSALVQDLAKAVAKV
measurement description: Biochemical CDK inhibition assay (Caliper mobility shift), CDK1/Cyclin B1
pIC50: −log10 of the molar value.
readout name: pIC50

Use these answered entries as a reference point.
Prompt: I'd like to know its pIC50. The compound in question is Cc1cc(Nc2ncc(C(F)(F)F)c(-c3cnn(CC(C)(C)O)c3)n2)c(F)cc1S(N)(=O)=O [Example 45]
Response: ≤ 6.30

Prompt: Okay, and CC(C)(O)Cn1cc(-c2nc(Nc3ccc(S(N)(=O)=O)cc3F)ncc2C#N)cn1 [Example 19] ?
Response: 6.30 to 7.00

Prompt: Okay, and C[C@H](O)[C@H](C)n1cc(-c2nc(Nc3ccc(S(N)(=O)=O)cc3F)ncc2C(F)(F)F)cn1 (single isomer, unassigned) [Example 9] ?
Response: 6.30 to 7.00

Prompt: Okay, and NS(=O)(=O)c1ccc(Nc2ncc(C(F)(F)F)c(-c3cnn(C4COC4)c3)n2)c(F)c1 [Example 43] ?
Response: ≤ 6.30

Prompt: Okay, and COc1cc(S(N)(=O)=O)ccc1Nc1ncc(C(F)(F)F)c(-c2cnn(CC(C)(C)O)c2)n1 [Example 27] ?
Response: 6.30 to 7.00

Prompt: Okay, and CC(C)(O)Cn1cc(-c2nc(Nc3ccc(S(N)(=O)=O)c(Cl)c3F)ncc2C(F)(F)F)cn1 [Example 38] ?
Response: ≤ 6.30

Further cases:
Prompt: I'd like to know its pIC50. The compound in question is CCc1cnc(Nc2ccc(S(N)(=O)=O)cc2)nc1-c1cnn(CC(C)(C)O)c1 [Example 24]
Response: 6.30 to 7.00

Source: patent US12668585B2
